# Tested on: Tov112D
# Experimental details: Primary qHTS to identify gynecologic anti-cancer compounds using libraries of approved drugs and bioactive compounds (AID 1345084); also: nearly all actives have a fitted effect of over 55% in size
# Condition description: Gynecologic cancer cell panel viability, ATPlite luminescence, 48 h; series mostly up to 57.5 µM
# Text: National Center for Advancing Translational Sciences [NCATS] Assay Overview: Chemotherapeutic drug responses vary from cancer to cancer and from patient to patient. […] ATPlite is a luminescence based assay reliant on the conversion of a luciferase substrate to light in the presence of ATP. As a cytotoxic compound will suppress growth and decrease the number of cells, the concentration of ATP will decrease, and less light signal will be detected in the well. […]
Inconclusive results are not listed. Active and inactive are the calls of the source. Calls follow the shape of the dose curve; as a rule, active = well fitted cell-killing curve with a large enough effect; inconclusive = small, poorly fitted or top-dose-only effect, or effect the other way; inactive = flat fitted curve, though single readings scatter.

>  <Compound>
CCOc1ccc(CCNC(=O)c2cc3sc(Cl)cc3n2C)cc1OCC

>  <outcome>
inactive

$$$$
>  <Compound>
O=C(N[C@H](Cc1cscn1)C(=O)N[C@@H](CC1CCCCC1)[C@@H](O)[C@@H](O)C1CC1)c1nc2ccccc2[nH]1

>  <outcome>
inactive

$$$$
>  <Compound>
COc1ccc(C2Oc3c(OC)cc(CCCO)cc3C2COC2OC(CO)C(O)C(O)C2O)cc1OC (stereo not given)

>  <outcome>
inactive

$$$$
>  <Compound>
Cc1nc(Nc2cnn(C3CCNCC3)c2)nc2c1N(C)C(=O)c1cc3ccccc3cc1N2C

>  <outcome>
inactive

$$$$
>  <Compound>
CC(C)=CCc1cc2c(cc1O)OC[C@H]1c3ccc(O)cc3O[C@@H]21

>  <outcome>
inactive

$$$$

----------
# Assayed system: Nicotinamide N-methyltransferase (Homo sapiens)
# Experimental details: Confirmatory Screen for Target Class Profiling of Small Molecule Inhibitors of Methyltransferases (AID 1745852)
# Condition description: MTase-Glo luminescence, SAH detection, recombinant enzyme; measured here: NNMT max response; stronger effect = lower value
Entries are sorted into classes by activity as follows: low = under -50%, mid = from -50% up to -30%, high = -30% and over

>  <Compound>
CC(C)(C[C@@](O)(Cc1cc2ccncc2[nH]1)C(F)(F)F)c1cc(F)ccc1O

>  <Classification>
high

$$$$
>  <Compound>
Cn1cc(-c2ccc(F)c(C(F)(F)F)c2)nc1C1CCN(c2ncnc3[nH]ncc23)CC1

>  <Classification>
mid

$$$$
>  <Compound>
CC1(CO)CC(O)[C@]2(C(=O)O)CCC34CC3(C=CC3[C@]5(C)C(CC[C@]34C)C(C)(CO)[C@@H](O)[C@H](O)[C@@H]5O)C2C1 (some centres undefined)

>  <Classification>
high

$$$$
>  <Compound>
CC1=C(C(=O)OC2CCCCC2)C(c2ccc([N+](=O)[O-])cc2)C2=C(CC(C)(C)CC2=O)N1 (centres undefined)

>  <Classification>
high

$$$$
>  <Compound>
CCC(=O)N1CCOc2c(cc(-c3ccc(OC)c(OC)c3)cc2OC[C@H]2CCCN(C)C2)C1

>  <Classification>
high

$$$$
>  <Compound>
CC1(C)CCC(C)(C)c2cc(C#Cc3ccc(C(=O)O)cc3)ccc21

>  <Classification>
low

$$$$
>  <Compound>
CN(C)CCOC(C)(c1ccccc1)c1ccc(Cl)cc1 (centres undefined)

>  <Classification>
high

$$$$
>  <Compound>
COc1cc2nc(N3CCN(C(=O)c4ccco4)C4CCCCC43)nc(N)c2cc1OC (centres undefined)

>  <Classification>
mid

$$$$
>  <Compound>
NCC(CNc1nc(Nc2cccc(NC(=O)N3CCCC3)c2)ncc1I)C(=O)c1cccs1 (centres undefined)

>  <Classification>
mid

$$$$
>  <Compound>
CCCCCCCOc1cc2c(cc1/C(C)=C/c1ccc(C(=O)O)cc1)C(C)(C)CCS2(=O)=O

>  <Classification>
low

$$$$
>  <Compound>
c1cc(NCCc2c[nH]c3ccccc23)cc(Nc2ccncc2)c1

>  <Classification>
high

$$$$
>  <Compound>
COC(=O)CC1OC(C)C2=C(O)c3c(O)cccc3C(=O)C23OC13 (centres undefined)

>  <Classification>
high

$$$$
>  <Compound>
CC(C)C[C@H](C(=O)O)c1cc(-c2ccc(C(F)(F)F)cc2)cc(-c2ccc(C(F)(F)F)cc2)c1

>  <Classification>
mid

$$$$
>  <Compound>
Cc1sc2c(c1C)C(c1ccc(Cl)cc1)=N[C@H](CC(=O)NCCCCNC(=O)COc1cccc3c1C(=O)N([C@H]1CCC(=O)NC1=O)C3=O)c1nnc(C)n1-2

>  <Classification>
low

$$$$
>  <Compound>
O=C(c1ccc(Cl)cc1)N1CCN(c2ccnc3cc(Cl)ccc23)CC1

>  <Classification>
mid

$$$$

----------
# Experimental details: Primary qHTS for inhibitors of nuclear receptor binding SET domain protein 2 (NSD2) in an RCH-ACV wild type WT cells (2C) (AID 1645877); also: nearly all actives have a fitted effect of over 70% in size
# Condition description: RCH-ACV (leukaemia line) NSD2 WT (2C) viability, CellTiter-Glo, 72 h; series mostly up to 44.9 µM
Records with an inconclusive call do not appear. Active and inactive are the calls of the source. The call rests on the fitted dose curve; in most records, active means well fitted inhibition curve with a large enough effect; inconclusive means small, poorly fitted or top-dose-only effect; inactive means no such curve, though single readings can be large or run the other way.
Outcome codes: active, inactive

>  <Compound>
O=C(NCCCc1ccccc1)C1CCC(CNS(=O)(=O)c2cccc3nsnc23)CC1 (centres undefined)

>  <Classification>
active

$$$$
>  <Compound>
CC1CCC(=O)CC(SCC(O)C(=O)O)CCC(=O)O1 (centres undefined)

>  <Classification>
inactive

$$$$
>  <Compound>
CC(=O)O[C@@H]1CC[C@@]2(C)[C@H](CC[C@@H]3[C@@H]2C[C@H](OC(C)=O)[C@]2(C)[C@@H](C(C)=O)CC[C@@H]32)C1

>  <Classification>
active

$$$$
>  <Compound>
C/C=C(/C)C(=O)O[C@H]1C=C(CO)C(=O)[C@H](OC(=O)/C(C)=C/CO)[C@H]1C(C)C

>  <Classification>
active

$$$$

----------
# Tested on: HaCat
# Experimental details: Cytotoxic Profiling of Annotated Libraries Using Quantitative High-Throughput Screening (AID 1296008); also: nearly all actives have a fitted effect of over 60% in size
# Condition description: Five cell lines viability, CellTiter-Glo ATP luminescence, 48-72 h
Results filed as inconclusive are left out. Calls of active or inactive are those of the source. Calls follow the shape of the dose curve; as a rule, active = well fitted inhibition curve with a large enough effect; inconclusive = small, poorly fitted or top-dose-only effect; inactive = flat fitted curve, though single readings scatter.
Outcome codes: active, inactive

>  <Molecule>
C/C=C/C=C/c1cc2c(C=O)c(O)c(CC=C(C)C)cc2o1

>  <Classification>
inactive

$$$$
>  <Molecule>
Cc1nc(Nc2ccc(F)cc2)nc(N2CCc3ccccc3C2C)c1C (stereo not drawn)

>  <Classification>
inactive

$$$$
>  <Molecule>
C=C(C)C1=C[C@@]2(C)C(=CC1=O)CC[C@@H](O)[C@@H]2C

>  <Classification>
inactive

$$$$
>  <Molecule>
CC1(C)CC[C@]2(C(=O)O[C@@H]3O[C@H](CO)[C@@H](O)[C@H](O)[C@H]3O)CC[C@]3(C)C(=CCC4[C@@]5(C)CC[C@H](O[C@@H]6O[C@H](C(=O)O)[C@H](O)[C@H](O)[C@H]6O)C(C)(C)C5CC[C@]43C)[C@@H]2C1 (stereo partly drawn)

>  <Classification>
inactive

$$$$
>  <Molecule>
C/C=C(\C)C(=O)OC1C=C(C)CC(OC(=O)c2ccc(O)cc2)C2C1(C)CCC2(O)C(C)C (stereo not drawn)

>  <Classification>
inactive

$$$$
>  <Molecule>
O=C(NO)c1ccc(CC(=O)N(CCO)c2ccccc2)cc1

>  <Classification>
inactive

$$$$
>  <Molecule>
CC(C)C[C@@H]1NC(=O)[C@@H](Cc2ccccc2)NC(=O)C(CCCCCC(=O)C2CO2)NC(=O)[C@@H]2CCCCN2C1=O (stereo partly drawn)

>  <Classification>
active

$$$$
>  <Molecule>
C#CCOc1ccc2c(c1)c(-c1ccc(C(C)C)cc1)nc(=O)n2C(C)C

>  <Classification>
inactive

$$$$
>  <Molecule>
CC(C)C[C@@H]1NC(=O)[C@@H]2C[C@@]34C[C@@H]5[C@@]6(C)CCCC(C)(C)C6CC[C@@]5(C)N(c5ccccc53)[C@H]4N2C1=O (stereo partly drawn)

>  <Classification>
inactive

$$$$
>  <Molecule>
CC(C)Nc1nc(Nc2ccccc2)nc(-c2ccccc2)n1

>  <Classification>
inactive

$$$$
>  <Molecule>
C=CC(=O)N1CCCC(n2nc(-c3ccc(Oc4ccccc4)cc3)c3c(N)ncnc32)C1 (stereo not drawn)

>  <Classification>
active

$$$$
>  <Molecule>
COc1cc2c(cc1-c1c(C)noc1C)ncc1[nH]c(=O)n(C(C)c3ccccn3)c12 (stereo not drawn)

>  <Classification>
inactive

$$$$
>  <Molecule>
N#Cc1ccc(-c2ccc(S(=O)(=O)Nc3cccc(N)n3)cc2)cc1

>  <Classification>
inactive

$$$$
>  <Molecule>
CC(/C=C/C(=O)NO)=C\[C@@H](C)C(=O)c1ccc(N(C)C)cc1

>  <Classification>
active

$$$$
>  <Molecule>
C=CCc1ccc(OC(C)Cc2ccc(OC)c(OC)c2)c(OC)c1 (stereo not drawn)

>  <Classification>
inactive

$$$$
>  <Molecule>
COC(=O)c1sccc1S(=O)(=O)Nc1ccc(Nc2ccccc2)cc1OC

>  <Classification>
inactive

$$$$
>  <Molecule>
CCC(CC)C(=O)OC12C(OC(=O)C(C)C)C(C)C3(O)C(C=C(CO)CC4(O)C(=O)C(C)=CC43)C1C2(C)C (stereo not drawn)

>  <Classification>
inactive

$$$$
>  <Molecule>
COc1cc2nc(N3CCN(C(=O)COc4c(OC)cccc4C(C)C)CC3)nc(N)c2cc1OC

>  <Classification>
inactive

$$$$
